All values here come from PubChem BioAssay (NCI).

Examples of compounds with documented growth follow.
tested on: HCC-2998 colon; assay: NCI-60 one-dose screen, 48 h (100 = growth as untreated, 0 = no growth, -100 = all killed); conditions: 10 µM
About 83,000 compounds went through this panel and 20% of them were active in at least one assay; those are over-represented in the sample as a whole.
Express your answer in %, writing the number without its unit.

Previously resolved entries follow.
Cc1ccccc1Nc1nc2nonc2nc1Nc1cccc(C)c1C
67.5
CCOc1ccc(N=C(C)Nc2ccc(OCC)cc2)cc1
104
COc1cc2c(cc1OCCCN1Cc3ccc(OCCCCC(=O)N4CCC(CCN5CCCC5)CC4)cc3C1)N=C(N)C21CCCC1
101

Turning now to a further compound:
Incoming: // query growth value for entry `COc1ccc(OC)c(NC2=C(SCCc3ccccc3)C(=O)c3ccccc3C2=O)c1`
Outgoing: 102

====

tested on: OVCAR-3 ovarian; assay: NCI-60 one-dose screen, 48 h (100 = growth as untreated, 0 = no growth, -100 = all killed); conditions: 10 µM unless noted
This is part of a sample that, as a whole, favours compounds with a hit. Of some 83,000 tested, about 20% had one in any assay.
readout.kind: growth (%)
Express your answer in %, writing the number without its unit.

Previously resolved entries follow.
CCCCCCCCCNCCCCCCCCC
86
Clc1nc(Cl)c2ncn(C/C=C\Cn3cnc4c(Cl)nc(Cl)nc43)c2n1
-97
COc1ccc(C2CC(=O)c3c(O)c(OC)c(OC)c(OC)c3O2)c(O)c1 (centres undefined)
0.132
O=c1nc2c(-c3nc4ccccc4s3)n[nH]n2c2sc3c(c12)CCCC3
95
CC1(C=O)NC(=O)NC1=O (centres undefined)
115

Incoming: // query growth value for entry `C=CCn1c(=O)c2cnc(Nc3ccc(N4CCN(C)CC4)cc3)nc2n1-c1cccc(C(C)(C)O)n1`
Outgoing: -8.58

Incoming: Further, for Cc1ccccc1N1C(c2ccccc2)=NNC12C=CC(=O)C=C2Cl (centres undefined) ?
Outgoing: 118

Incoming: Further, for CC(C)C1CCC(C)C(C2(C#N)C(N)=NC(N)=C2C#N)C1=O (centres undefined) ?
Outgoing: 98

Incoming: Further, for COc1cc(NC2CCC(=O)N2c2ccc(Cl)cc2Cl)cc(OC)c1OC (centres undefined) ?
Outgoing: 101

Incoming: Further, for CC(=O)OC1Oc2ccccc2-c2oc(=O)c(-c3cc4ccc(N(C)C)cc4oc3=O)cc21 (centres undefined) ?
Outgoing: 43

Incoming: Further, for `Cc1cc(N(CCNc2ccnc3cc(Cl)ccc23)Cc2ccc3c(c2)OCO3)nc(N2CCCC2)n1` ?
Outgoing: -30.7

Incoming: Further, for O=C1C=CC2(NN=C(c3ccccc3)N2c2cccc(Cl)c2)c2cccc(O)c21 (centres undefined) ?
Outgoing: 36.6

Incoming: Further, for `CCCCCc1ccc(C)cc1OC(=O)CCl` ?
Outgoing: 122

Incoming: Further, for `COc1ccc(Br)cc1NC(=O)Nc1cccc2c1ccn2Cc1ccnc(N)c1` ?
Outgoing: 67.4

====

tested on: HCT-116 colon; assay: NCI-60 one-dose screen, 48 h (100 = growth as untreated, 0 = no growth, -100 = all killed); conditions: 10 µM unless noted
Compounds without any hit were thinned out: in the full panel of roughly 83,000, 20% have a hit.
readout.kind: growth (%)
Express your answer in %, writing the number without its unit.

Previously resolved entries follow.
Cc1cc(-c2cc(O)ccc2Cl)cc2nnc(Nc3ccc(OCCN4CCCC4)cc3)nc12
-57.5
CC1(C)NC(=O)c2[nH]c3c(Cl)c(Cl)ccc3c2C1C#N (configuration not stated)
83.6
CC(N)C(Cc1ccc(Cl)cc1)c1ccc(Cl)cc1 (configuration not stated)
35
Cn1cnc2c(F)c(Nc3ccc(Br)cc3F)c(C(=O)NOCCO)cc21
19
COC(=O)[C@@H](NC(=O)[C@@H](OC)[C@@H]1Cc2cc3cc(OC4CC(OC5CC(O)C(O)C(C)O5)C(O)C(C)O4)c(C)c(O)c3c(O)c2C(=O)[C@H]1OC1CC(OC2CC(OC3CC(C)(O)C(O)C(C)O3)C(O)C(C)O2)C(O)C(C)O1)C(C)C (some centres not stated)
4.79
C#Cc1cccc(Nc2ncnc3cc(OCCOC)c(OCCOC)cc23)c1
54.1

Incoming: // fetch HCT-116 colon growth for `CNC(=O)c1ccc(Nc2ncc(C(F)(F)F)c(NCc3nccnc3N(C)S(C)(=O)=O)n2)cc1`
Outgoing: 1.19

Incoming: Further, for CCCCCCC1(/C=N/NC(N)=O)NC(=O)NC1=O (configuration not stated) ?
Outgoing: 84.2

Incoming: Further, for `Cc1ccc(C(=O)Nc2ccc(CN3CCN(C)CC3)c(C(F)(F)F)c2)cc1C#Cc1cnc2cccnn12` ?
Outgoing: -85.3

Incoming: Further, for `CO[C@@H](C)Cn1c(=O)n(C)c2cnc3ccc(-c4cncc(C(C)(C)O)c4)cc3c21` ?
Outgoing: 3.72

Incoming: Further, for `CCN(CC)c1cc2oc3cc(N)cc(=N)c-3nc2cc1C` ?
Outgoing: -12.2

Incoming: Further, for `O=C(c1ccc(/C=C/c2n[nH]c3ccccc23)cc1)N1CCNCC1` ?
Outgoing: 17.7

Incoming: Further, for `CCCS(=O)(=O)Nc1ccc(F)c(C(=O)c2c[nH]c3ncc(-c4ccc(Cl)cc4)cc23)c1F` ?
Outgoing: 27.3

Incoming: Further, for `Cc1cc([C@@H](C)Nc2ccccc2C(=O)O)c2nc(N3CCOCC3)cc(=O)n2c1` ?
Outgoing: 23

====

tested on: IGROV1 ovarian; test: NCI-60 one-dose screen, 48 h (100 = growth as untreated, 0 = no growth, -100 = all killed); settings: 10 µM unless noted
Compounds without any hit were thinned out: in the full panel of roughly 83,000, 20% have a hit.
Examples of molecules with documented growth follow.
Express your answer in %, writing the number without its unit.

Incoming: // query growth value for entry `COc1cc(Nc2ncc3c(n2)-c2ccc(Cl)cc2C(c2c(F)cccc2OC)=NC3)ccc1C(=O)O`
Outgoing: 63.3

Incoming: Further, for `CC[C@@H]1C(=O)N(C)c2cnc(Nc3ccc(C(=O)NC4CCN(C)CC4)cc3OC)nc2N1C1CCCC1` ?
Outgoing: -0.189

====

test system: EKVX NSCLC; test: NCI-60 one-dose screen, 48 h (100 = growth as untreated, 0 = no growth, -100 = all killed); conditions: 10 µM unless noted
This is part of a sample that, as a whole, favours compounds with a hit. Of some 83,000 tested, about 20% had one in any assay.
readout.kind: growth (%)
Express your answer in %, writing the number without its unit.

CN1CCC(CNc2ccc3ncc(-c4cccc(OC(F)(F)F)c4)n3n2)CC1
4.31

Incoming: // query growth value for entry COc1ccc(C2OC(c3cc(-c4cc5ccccc5o4)nn3-c3ccccc3)=NN2C(C)=O)cc1 (configuration not stated)
Outgoing: 94.5

Incoming: Further, for `Cn1cnc(-c2cc3nccc(Oc4ccc(NC(=S)NC(=O)Cc5ccccc5)cc4F)c3s2)c1` ?
Outgoing: 109

Incoming: Further, for `COc1cc2c(Oc3ccc4[nH]c(C)cc4c3F)ncnc2cc1OCCCN1CCCC1` ?
Outgoing: 95.4

Incoming: Further, for `COc1cc2c(Nc3ccc(Br)cc3F)ncnc2cc1OCC1CCN(C)CC1` ?
Outgoing: 35.4

Incoming: Further, for `O=c1[nH]ccc2c(S(=O)(=O)N3CCCNCC3)cccc12` ?
Outgoing: 65.4

Incoming: Further, for `CN1CCN(CCOc2cc(OC3CCOCC3)c3c(Nc4c(Cl)ccc5c4OCO5)ncnc3c2)CC1` ?
Outgoing: 43.8

====

system: HT29 colon; assay: NCI-60 one-dose screen, 48 h (100 = growth as untreated, 0 = no growth, -100 = all killed); settings: 10 µM unless noted
This is part of a sample that, as a whole, favours compounds with a hit. Of some 83,000 tested, about 20% had one in any assay.
Examples of compounds with documented growth follow.
Express your answer in %, writing the number without its unit.

Previously resolved entries follow.
CCCC(=O)OCC1OC(n2cnc3c(=S)nc[nH]c32)C(OC(=O)CCC)C1OC(=O)CCC (stereo not drawn)
35.9
COc1cc2c(c(OC)c1)C1c3ccccc3NC(=O)N1CC2 (stereo not drawn)
6.37

Turning now to a further compound:
Incoming: // query growth value for entry `COc1ccc(F)c(F)c1C(=O)c1cnc(NC2CCN(S(C)(=O)=O)CC2)nc1N`
Outgoing: -25.5

====

system: K-562 leukemia; assay: NCI-60 one-dose screen, 48 h; conditions: 10 µM unless noted
The panel holds about 83,000 compounds, 20% with a hit somewhere; the sample as a whole holds those more often. The source made the active and inactive calls. Rule for the calls: active = growth percent below 10; inactive = the rest.
Assign a class; possible classes are yes (1) (active), no (0) (inactive)

# count of solved cases: 10
N#Cc1c(NC(=O)c2cccs2)[n+]([O-])c2ccc(F)cc2[n+]1[O-]
no (0)
COc1ccc(-c2nc(N)ncc2Oc2ccccc2OC)c(O)c1
no (0)
COC(=O)CC[C@@H](C)[C@H]1CC[C@H]2C3CC[C@@H]4C[C@@H]5CC[C@]4(C)[C@@]3(O5)[C@H](Br)[C@@H](Br)[C@]12C (stereo not given in full)
no (0)
COC(=O)[C@]12CC[C@@H](C)[C@H](C)[C@@H]1C1=CC[C@@H]3[C@@]4(C)C[C@@H](OC(=O)/C=C/c5ccccc5)[C@H](O)[C@@](C)(CO)[C@@H]4[C@H](O)C[C@@]3(C)[C@]1(C)CC2
yes (1)
O=C1NC(=O)C(c2cnc3ccccn23)=C1c1cn2c3c(cc(F)cc13)CN(C(=O)N1CCCCC1)CC2
no (0)
Nc1c2c(c(O)c3c1=C(CO)C=N3)=NCCS2=O (stereo not given)
yes (1)
C=CC[n+]1c(/C=C/C=C2\N(C)c3ccccc3C2(C)C)sc2ccc(OC)cc21
no (0)
O=c1nc2c(-c3nc4ccccc4s3)n[nH]n2c2sc3c(c12)CCCC3
no (0)
COc1cc2c(cc1OCCCCCN1CCN(c3ncnc4ccccc34)CC1)N=CC1CCCN1C2=O (stereo not given)
yes (1)
CC(C)C1CCC(C)C(C2(C#N)C(N)=NC(N)=C2C#N)C1=O (stereo not given)
no (0)

Incoming: Call for entry `COc1ccc2nc3cc(Cl)ccc3c(Nc3ccc(N(C)C)cc3)c2c1` :
Outgoing: no (0)

Incoming: Further, for `O=c1[nH]c(N2CCOCC2)nc2scc(-c3ccccc3)c12` ?
Outgoing: no (0)

Incoming: Further, for O=C1CC(c2ccc(Cl)cc2)c2ncn(-c3cccc(Cl)c3)c2N1 (stereo not given) ?
Outgoing: no (0)

Incoming: Further, for COC(=O)[C@@H](OC)[C@@H]1Cc2cc3cc(OC4CC(OC5CC(O)C(O)C(C)O5)C(O)C(C)O4)c(C)c(O)c3c(O)c2C(=O)[C@H]1OC1CC(OC2CC(OC3CC(C)(O)C(O)C(C)O3)C(O)C(C)O2)C(O)C(C)O1 (stereo not given in full) ?
Outgoing: yes (1)

Incoming: Further, for `CCOc1cc2ncc(C#N)c(Nc3ccc(OCc4ccccn4)c(Cl)c3)c2cc1NC(=O)/C=C/CN(C)C` ?
Outgoing: yes (1)
